- measurement notes: Rat pharmacokinetics after PO and SC dosing
- Assay type: in vivo, female Lewis rats
- cond: rat; fed female Lewis rats, 30 mg/kg PO, plasma; read-out: Rat PK, 30 mpk PO, Cmax
- Experimental: Pharmacokinetic Properties Pharmacokinetic parameters were determined following PO and SC dosing at 30 mg/kg in fed female Lewis rats. Compounds were formulated for both PO and SC dosing in 50/50 (v/v) 50% captisol/50 mM citrate buffer (pH 4). […] Pharmacokinetic parameters were calculated using established non-compartmental methods.
test readout: Cmax (µM)

Below: 2 compounds and their reported Cmax.
{"compound": "Cc1ccc(-n2nc(N3CCN(C)CC3)cc2NC(=O)c2cnn3ccccc23)nc1 [Compound A, reference compound]", "value": 1}
{"compound": "Cc1ccc(-n2nc(N3CCN([C@@H]4CCS(=O)(=O)C4)CC3)cc2NC(=O)c2cnn3cccnc23)nc1", "value": 8.6}

a. Cc1ccc(-n2nc(N3CCN([C@H]4CCS(=O)(=O)C4)CC3)cc2NC(=O)c2cnn3cccnc23)nc1
b. Cc1ccc(-n2nc(N3CCN(CC(N)=O)CC3)cc2NC(=O)c2cnn3cccnc23)nc1
Ask: Lab log: flag the item ( a or b ) with the smaller Cmax figure. In your reply, give the label of the chosen option.
Result: b
